This collection of values is drawn from ChEMBL document CHEMBL1799910.

- assay_details: Stability in mouse liver microsomes
- Type: ADME, Microsome
- stated_conditions: liver microsomes
Classify by measured half-life: fulfilled if it is equal to or exceeds 8 min, not fulfilled if it is smaller.

Answered examples (5):
Cc1cc(Cl)ccc1-c1ccc2[nH]c3c(c(=O)c2c1)CSCC3 fulfilled
O=c1c2c([nH]c3cc(F)cc(F)c13)CCCC2 not fulfilled
O=c1c2c([nH]c3cc(-c4ccc(Oc5ccc(OC(F)(F)F)cc5)cc4)ccc13)CCCC2 fulfilled
Cc1cccc2c(=O)c3c([nH]c12)CCCC3 not fulfilled
COc1ccc2c(=O)c3c([nH]c2c1)CCC(C)(C)C3 fulfilled

Record `O=c1c2c([nH]c3ccc(-c4ccc(C(F)(F)F)cc4)cc13)CCSC2` ; criterion: half-life no lower than 8 min. Met?
fulfilled

Textbook exercise: given the entry `Cc1ccc2c(=O)c3c([nH]c2c1)CCCC3` , state whether its half-life is greater than or equal to 8 min.
fulfilled

Say whether `O=c1c2c([nH]c3ccccc13)CCCC2` shows half-life of 8 min or more.
fulfilled
